Assay: soluble on expression in E. coli; label from the status in PepcDB or PDB records
parameter: soluble on expression in E. coli

{"primary_sequence": "MTAPPPPLVELPPGSMVERWSITKKLGEGGCGAVYLCTDATGKYALKVEGISEAMQVLKMEVLVLGELTKRGSRHFCKIEDKGRYGSFNYVVMTLVGKSLQDLRKGTAQQCLSLACSLSVGIQSLEALEDLHNIGYLHRDVKPGNYTIGRAELNELRKVYILDFGMARKFTDNNGVIRKPRAAAGFRGTVRYAPIACHKNQELGRKDDVEVWLYMQVELTVGRVPWKEITDMNAVGQAKQAIRNTPEKMFVFPCPANELKEIMKMVDSWDYFADPNYADCYRLMKQTLANCGKPEYPYDWEPGMPLNYMVK", "data_value": "not soluble"}
{"primary_sequence": "MGSDKIHHHHHHMHSLTPEYLAALCFDGTQVATLRTLGEYQGKQQLYAAQSPEALKGLRQIAVVESTESSNRLEGVVVAPSRLKSLVIRNATPKSRSEQEIAGYRDALALIHESAAHMPFSEGVVLQLHTLLYRYMPQAGGRWKATNNDIIERHPDGTSRLRFQPVASHLTPMAMADLTGRYATALDQHLADPLVLVPLAMLDLLCIHPFPDGNGRMSRLLTLLLLYHFDYAVGRYISLERIFEETKESYYETLEASSQGWYQGQHDVKPWLDYFWGALLRAYREFEERVGTIERGRGSKGDRVRAEVLGRSLPFSISEIEEACPGVSRDMVRLVLRAMKSEGLIESTGKGRGAKWIKQG", "data_value": "not soluble"}
{"primary_sequence": "MAEKNHQQQERLPGNPFFPSRSNAGSSFDMPETPHLIDSLTSQIDEFTIQSIIDTQRQSLKRFEKTNEMLMNCAQLGDRRIEKAKRDSVGHKETILQMKTDLEFIFKKIRMFKTVLSSKYPEVYAEVSAELTPKRSEEDE", "data_value": "not soluble"}
{"primary_sequence": "MAAMRKALPRRLVGLASLRAVSTSSMGTLPKRVKIVEVGPRDGLQNEKNIVSTPVKIKLIDMLSEAGLSVIETTSFVSPKWVPQMGDHTEVLKGIQKFPGINYPVLTPNLKGFEAAVAAGAKEVVIFGAASELFTKKNINCSIEESFQRFDAILKAAQSANISVRGYVSCALGCPYEGKISPAKVAEVTKKFYSMGCYEISLGDTIGVGTPGIMKDMLSAVMQEVPLAALAVHCHDTYGQALTNTLMALQMGVSVVDSSVAGLGGCPYAQGASGNLATEDLVYMLEGLGIHTGVNLQKLLEAGNFICQALNRKTSSKVAQATCKL", "data_value": "soluble"}
{"primary_sequence": "SLVVNRSWMRCWSITALRADHSVKICLIDETGAGDGALSVLAARWGLEHDEDNLMALVLTPEHLELRKRDEPKLGGIFVDFVGGAMAHRRKFGGGRGEAVAKAVGIKGDYLPDVVDATAGLGRDAFVLASVGCRVRMLERNPVVAALLDDGLARGYADAEIGGWLQERLQLIHASSLTALTDITPRPQVVYLDPMFPHKQKSALVKKEMRVFQSLVGPDLDADGLLEPARLLATKRVVVKRPDYAPPLANVATPNAVVTKGHRFDIYAGTPV", "data_value": "soluble"}

====

Experiment: soluble on expression in E. coli; label from the status in PepcDB or PDB records
parameter: soluble on expression in E. coli

{"primary_sequence": "GLDVAISQNGFFRLVDSNGSVFYSRNGQFKLDENRNLVNMQGMQLTGYPATGTPPTIQQGANPAPITIPNTLMAAKSTTTASMQINLNSTDPVPSKTPFSVSDADSYNKKGTVTVYDSQGNAHDMNVYFVKTKDNEWAVYTHDSSDPAATAPTTASTTLKFNENGILESGGTVNITTGTINGATAATFSLSFLNSMQQNTGANNIVATNQNGYKPGDLVSYQINNDGTVVGNYSNEQEQVLGQIVLANFANNEGLASQGDNVWAATQASGVALLGTAGSGNFGKLTNGALEASNVDLSK", "data_value": "soluble"}
{"primary_sequence": "MDYDRYKLFVGGIAKETSEEALKQYFSRYGAVLEAVVAKEKVTGKPRGFGFVRFANDCDVVKALRDTHFILGKPVDVRKAIRKHELYQQPFSMQFLERKVQQMNGGLREMSSNGVTSRTKKIFVGGLSSNTTEEEFKSYFERFGRTTDVVVMHDGVTNRPRGFGFVTYDSEDSVEVVMQSNFHELSDKRVEVKRAIPKEGIQSNNGNAVNIPPSYSSFQATPYVPEQNGYGMVLQFPPPVFGYHHNVQAVQYPYGYQFTAQVANVSWNNPIMQPTGFYCAPPHPTPPPTNNLGYIQYMNGFDLSGTNISGYNPLAWPVTGDAAGALIHQFVDLKLDVHSQAHQRMNGGNMGIPLQNGTYI", "data_value": "soluble"}
